Reported Kd values follow for various binders
Target: T1, GFP-9S library array, motif 4 ND N98Q;D124P (synthetic construct, N98Q;D124P)
T1 chain: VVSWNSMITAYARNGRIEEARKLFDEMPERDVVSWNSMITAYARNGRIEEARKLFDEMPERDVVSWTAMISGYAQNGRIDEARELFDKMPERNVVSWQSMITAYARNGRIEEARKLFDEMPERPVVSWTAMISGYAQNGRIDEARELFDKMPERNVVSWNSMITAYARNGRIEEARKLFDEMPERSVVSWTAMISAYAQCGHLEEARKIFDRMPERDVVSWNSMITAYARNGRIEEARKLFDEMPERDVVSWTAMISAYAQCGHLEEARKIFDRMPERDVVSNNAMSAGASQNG
Assay: high-throughput RNA pulldown from lysate on Ni-NTA beads; HRP: 50 mM Tris pH 8, 150 mM NaCl, 1 mM beta-mercaptoethanol, 50 ug/ml BSA, 3 ug/ml yeast RNA, 0.5% heparin; ITC and FP: Tris pH 8, 200 mM KCl, 5% glycerol; MST: 50 mM Tris pH 8, 200 mM NaCl, 1 mM DTT, BSA, heparin, 0.05% Tween 20
Settings: tags: N-terminal His-eGFP; label: 5' Cy5
VALUE KIND: Kd (nM)

>>> print(df.to_string())
                             binder  result
0    AUUACACGUGA (ssRNA) [Cy5-rpoA]     135
1  AUUAGACGUGA (ssRNA) [Cy5-rpoA-G]     138
